# TARGET OF ASSAY: Transcription intermediary factor 1-alpha (Homo sapiens)
# STUDY CONDITIONS: Compound concentration 20.0 uM
Classify by ΔTm. Ranges: bin 0: < -0.2 °C; bin 1: ≥ -0.2 °C and < 0.2 °C; bin 2: ≥ 0.2 °C

Completed entries (count: 4):
COMPOUND	TARGET OF ASSAY	ASSIGNED CATEGORY
COc1ccc(C(CN(C)C)C2(O)CCCCC2)cc1 (stereo not drawn)	Transcription intermediary factor 1-alpha (Homo sapiens)	bin 0
CCS(=O)(=O)N1CCC([C@@H](C)n2c(C)c(C(=O)NCc3c(OC)cc(C)[nH]c3=O)c3ccccc32)CC1	Transcription intermediary factor 1-alpha (Homo sapiens)	bin 0
O=C(N1CCCC[C@H]1Cc1ccccc1)n1cc(-c2ccc(-c3ccccc3)cc2)nn1	Transcription intermediary factor 1-alpha (Homo sapiens)	bin 2
C[C@]12O[C@H](C[C@]1(O)CO)n1c3ccccc3c3c4c(c5c6ccccc6n2c5c31)CNC4=O	Transcription intermediary factor 1-alpha (Homo sapiens)	bin 1

# bin lookup: classify CN(Cc1cccc(-c2ccncc2)c1)C(=O)Oc1ccc(-c2ccc(C(N)=O)cc2)cc1 by its ΔTm
bin 1

Category of COc1cn(-c2ccc(-n3cccn3)cc2F)nc(-c2ccnn2-c2ccccc2)c1=O , please.
bin 0

Which category does the recorded ΔTm put N#Cc1ccc([C@H]2CCCC[C@H]2O)cc1C(F)(F)F in?
bin 0

Lab note: which band did O=C(O)C1=CCCN(CCOC(c2ccc(C(F)(F)F)cc2)c2ccc(C(F)(F)F)cc2)C1 land in?
bin 1

Lab log: N#Cc1ccc(N2N=C3c4ccc(C(=O)O)cc4CC[C@@H]3[C@@H]2C2CCCC2)cc1Cl — assign ΔTm category
bin 2

Entry COc1cc(C)[nH]c(=O)c1CNC(=O)c1c(C)n([C@H](C)C2CCN(CC(F)(F)F)CC2)c2ccccc12 belongs to which category?
bin 0

----------
# TARGET OF ASSAY: Aurora kinase A (Homo sapiens) (UniProt O14965)
# Sequence (O14965 whole entry): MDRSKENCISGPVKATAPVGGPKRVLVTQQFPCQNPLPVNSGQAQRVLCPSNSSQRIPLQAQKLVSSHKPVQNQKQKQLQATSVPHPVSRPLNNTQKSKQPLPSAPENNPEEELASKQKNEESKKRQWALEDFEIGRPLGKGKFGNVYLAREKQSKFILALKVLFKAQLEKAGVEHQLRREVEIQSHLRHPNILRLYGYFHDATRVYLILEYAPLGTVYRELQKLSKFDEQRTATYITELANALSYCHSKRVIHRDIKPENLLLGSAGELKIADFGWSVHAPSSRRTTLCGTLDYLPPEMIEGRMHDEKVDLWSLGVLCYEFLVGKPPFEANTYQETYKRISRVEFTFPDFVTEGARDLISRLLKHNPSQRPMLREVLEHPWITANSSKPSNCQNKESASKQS
# STUDY CONDITIONS: Compound concentration 20.0 uM
# Description: Thermal Shift Assay. Domain: start/stop: E122-S403
Quick reference for ΔTm among some compounds
Response body: numeric value in °C, unit text excluded.

Some solved entries appear below for comparison.
COMPOUND	UNIT TEXT	RECORDED VALUE
CCS(=O)(=O)N1CCC([C@@H](C)n2c(C)c(C(=O)NCc3c(OC)cc(C)[nH]c3=O)c3ccccc32)CC1	°C	-0.26
C[C@]12CC[C@@H]3c4ccc(O)cc4C[C@@H](CCCCCCCCC[S+]([O-])CCCC(F)(F)C(F)(F)F)[C@H]3[C@@H]1CC[C@@H]2O (some centres undefined)	°C	-0.16
C=Cc1cc(C(=O)Nc2ccc(C(=N)N)cc2)c(-c2ccc(C(=O)NCC3CC3)nc2C(=O)O)cc1OC	°C	-1.17
CCCCCn1c(C)c(C(=O)c2cccc3ccccc23)c2ccccc21	°C	-2.46
O=C(NNc1ccccn1)c1ccccn1	°C	-0.43

ΔTm lookup needed for CN(C)NC(=O)CCC(=O)O , thanks.
-2.27

I'd like to know its ΔTm. The compound in question is N#Cc1nc2c(nc1C#N)-c1ccccc1C2=NOCc1ccccc1
-1.52

For the compound shown here, CN1[C@@H]2CC[C@H]1C[C@@H](OC(c1ccc(F)cc1)c1ccc(F)cc1)C2 , give the reported ΔTm.
-2.6

Look up ΔTm: Nc1cccc(CNC(=O)c2ccc(Oc3ccc(OCc4cccc(F)c4)cc3)nc2)c1
-1.57

----------
# TARGET OF ASSAY: Bromodomain-containing protein 4 (Homo sapiens) (UniProt O60885)
# STUDY CONDITIONS: Compound concentration 20.0 uM
MEASUREMENT TYPE: ΔTm (°C)
Give the number; °C is assumed, so skip it.

COMPOUND	TARGET OF ASSAY	ΔTm / °C
Fc1ccc(C(OCCN2CCN(CCCc3ccccc3)CC2)c2ccc(F)cc2)cc1	Bromodomain-containing protein 4 (Homo sapiens) (UniProt O60885)	-4.03
O=C(N1CCCC[C@@H]1Cc1ccccc1)n1cc(-c2ccc(-c3ccccc3)cc2)nn1	Bromodomain-containing protein 4 (Homo sapiens) (UniProt O60885)	-2.3
COc1ccc(N(C(=O)Oc2c(C)cccc2C)c2ccnc(Nc3ccc(N4CCN(C)CC4)cc3)n2)c(OC)c1	Bromodomain-containing protein 4 (Homo sapiens) (UniProt O60885)	-0.9
CN(C)NC(=O)CCC(=O)O	Bromodomain-containing protein 4 (Homo sapiens) (UniProt O60885)	-2.43
O=C(NNc1ccccn1)c1ccccn1	Bromodomain-containing protein 4 (Homo sapiens) (UniProt O60885)	-1.77
O=C1C(P(=O)(O)O)CC(O)N1O (stereo not drawn)	Bromodomain-containing protein 4 (Homo sapiens) (UniProt O60885)	0.66

I have this compound here, COc1cc(C)[nH]c(=O)c1CNC(=O)c1c(C)n([C@H](C)C2CCOCC2)c2ccccc12 , and I need its recorded ΔTm.
-1.94

What measured ΔTm goes with N[C@H]1CC[C@H](N[C@@H]2C[C@H]2c2ccccc2)CC1 ?
-1.89

----------
# TARGET OF ASSAY: Mitogen-activated protein kinase 1 (Homo sapiens)
# STUDY CONDITIONS: Compound concentration 20.0 uM
# Description: Thermal Shift Assay. Domain: start/stop: M1-S360
This listing pairs compounds with measured ΔTm.
The reply should be a number in °C, with the unit left off.

# count of solved cases: 3
SMILES STR	TARGET OF ASSAY	UNIT TEXT	ΔTm
C[C@]12O[C@H](C[C@]1(O)CO)n1c3ccccc3c3c4c(c5c6ccccc6n2c5c31)CNC4=O	Mitogen-activated protein kinase 1 (Homo sapiens)	°C	0.35
Cc1sc2c(c1C)C(c1ccc(Cl)cc1)=N[C@@H](CC(=O)OC(C)(C)C)c1nnc(C)n1-2	Mitogen-activated protein kinase 1 (Homo sapiens)	°C	-0.24
CC(C)n1nc(-c2cc3cc(O)ccc3[nH]2)c2c(N)ncnc21	Mitogen-activated protein kinase 1 (Homo sapiens)	°C	0.14

Reported ΔTm for COc1ccc(N(C(=O)Oc2c(C)cccc2C)c2ccnc(Nc3ccc(N4CCN(C)CC4)cc3)n2)c(OC)c1 : what is it?
0.08

----------
# TARGET OF ASSAY: Mitogen-activated protein kinase 1 (Homo sapiens)
# STUDY CONDITIONS: Compound concentration 20.0 uM
Each entry below lists one item and its recorded ΔTm value.
Give the value in °C but do not write °C after it.

SMILES STR	ΔTm [°C]
N#Cc1nc2c(nc1C#N)-c1ccccc1C2=NOCc1ccccc1	-0.23
COc1cc(O)c2c(c1)/C=C\C[C@H](O)[C@H](O)C(=O)/C=C\C[C@H](C)OC2=O	0

# input for lookup
GET /values?readout=ΔTm&item= N#Cc1ccc([C@H]2CCCC[C@H]2O)cc1C(F)(F)F
-0.24

----------
ΔTm values by entry
# TARGET OF ASSAY: Glycogen synthase kinase-3 beta (Homo sapiens)
# STUDY CONDITIONS: Compound concentration 20.0 uM
# Description: Thermal Shift Assay. Domain: start/stop: M26-R383
Reply numerically in °C, unit not repeated.

Worked set:
SMILES STR	ΔTm / °C
O=C1Cc2cc(C(=O)N[C@@H]3C[C@H]4CC[C@@H](C3)N4S(=O)(=O)CC3CCN(CCCC(F)(F)F)CC3)c(Cl)cc2N1	-1.14
C(=C\c1ccccc1)/CN1CCN(CCOC(c2ccccc2)c2ccccc2)CC1	-0.82
CC(=O)Nc1ccc(OC[C@](C)(O)C(=O)Nc2ccc([N+](=O)[O-])c(C(F)(F)F)c2)cc1	0.71
CCCCCn1c(C)c(C(=O)c2cccc3ccccc23)c2ccccc21	-0.36

Please look at the following compound next.
For Cc1ccc(N2C(=O)/C(=C/C=C/c3ccco3)C(=O)NC2=S)cc1Cl , what is its reported ΔTm?
-1.52

----------
Catalogue of molecules with associated ΔTm
# TARGET OF ASSAY: Tyrosine-protein kinase ABL1 (Homo sapiens) (UniProt P00519)
# Sequence (P00519 whole entry): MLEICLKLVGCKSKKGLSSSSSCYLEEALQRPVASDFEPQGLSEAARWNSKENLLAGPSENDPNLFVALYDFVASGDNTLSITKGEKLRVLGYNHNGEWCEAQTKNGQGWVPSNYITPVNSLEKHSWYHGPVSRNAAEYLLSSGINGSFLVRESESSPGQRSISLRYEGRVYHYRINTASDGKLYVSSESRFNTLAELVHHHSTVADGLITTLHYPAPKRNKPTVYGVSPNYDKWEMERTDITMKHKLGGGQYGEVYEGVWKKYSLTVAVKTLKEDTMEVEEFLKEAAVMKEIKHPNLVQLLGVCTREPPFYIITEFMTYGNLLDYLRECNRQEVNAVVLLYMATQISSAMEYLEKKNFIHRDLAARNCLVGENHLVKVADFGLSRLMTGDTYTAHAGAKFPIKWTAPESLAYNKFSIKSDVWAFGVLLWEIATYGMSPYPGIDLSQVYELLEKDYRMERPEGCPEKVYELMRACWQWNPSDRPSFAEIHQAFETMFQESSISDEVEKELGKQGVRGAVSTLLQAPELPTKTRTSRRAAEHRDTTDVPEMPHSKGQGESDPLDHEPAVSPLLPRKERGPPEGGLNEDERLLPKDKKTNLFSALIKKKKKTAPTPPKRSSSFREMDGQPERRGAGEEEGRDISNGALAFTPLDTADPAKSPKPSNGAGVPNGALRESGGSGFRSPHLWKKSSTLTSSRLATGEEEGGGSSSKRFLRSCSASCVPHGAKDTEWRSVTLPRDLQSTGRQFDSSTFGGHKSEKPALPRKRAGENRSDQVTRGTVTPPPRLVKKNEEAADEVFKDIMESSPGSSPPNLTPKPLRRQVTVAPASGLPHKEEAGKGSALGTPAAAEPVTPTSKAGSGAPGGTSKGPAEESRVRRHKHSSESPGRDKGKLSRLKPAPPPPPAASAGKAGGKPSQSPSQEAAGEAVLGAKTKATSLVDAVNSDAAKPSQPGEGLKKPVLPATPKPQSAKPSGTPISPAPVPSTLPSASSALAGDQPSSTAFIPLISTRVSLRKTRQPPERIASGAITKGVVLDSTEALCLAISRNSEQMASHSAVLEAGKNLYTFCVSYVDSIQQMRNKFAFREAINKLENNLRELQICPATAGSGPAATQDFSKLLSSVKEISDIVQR
# STUDY CONDITIONS: Compound concentration 20.0 uM
# Description: Thermal Shift Assay. Domain: start/stop: S229-K512
Non-standard residues stand in square brackets, D forms with d. Residues, ends and D or L forms follow the SMILES beside them. *: point of attachment. Benzoyl(4-OPh) = O=C(c1ccc(Oc2ccccc2)cc1)*; Lys(Et2) = CCN(CC)CCCC[C@H](N)C(=O)O; d(aIle) = CC[C@H](C)[C@@H](N)C(=O)O; Gly(cPent) = N[C@H](C(=O)O)C1CCCC1; NH(propargyl) = C#CCN*
Report as a plain number; the unit °C is understood.

MOLECULE	TARGET OF ASSAY	UNIT TEXT	ΔTm
COc1ccc(C(CN(C)C)C2(O)CCCCC2)cc1 (stereo unspecified)	Tyrosine-protein kinase ABL1 (Homo sapiens) (UniProt P00519)	°C	0.51
CN(C)NC(=O)CCC(=O)O	Tyrosine-protein kinase ABL1 (Homo sapiens) (UniProt P00519)	°C	0.19
O=C1C(P(=O)(O)O)CC(O)N1O (stereo unspecified)	Tyrosine-protein kinase ABL1 (Homo sapiens) (UniProt P00519)	°C	0.12
CS(=O)(=O)Nc1ccc(-c2coc3cc(OCc4cccc(C(=O)O)c4)ccc3c2=O)cc1	Tyrosine-protein kinase ABL1 (Homo sapiens) (UniProt P00519)	°C	-0.03

Which ΔTm reading was recorded for the molecule COc1cc(C)[nH]c(=O)c1CNC(=O)c1c(C)n([C@H](C)C2CCN(CC(F)(F)F)CC2)c2ccccc12 ?
0.27

ΔTm for C#CCNC(=O)[C@H](CO)NC(=O)[C@H](CCCCN(CC)CC)NC(=O)[C@H](NC(=O)[C@@H](NC(=O)c1ccc(Oc2ccccc2)cc1)C1CCCC1)[C@@H](C)CC ({Benzoyl(4-OPh)}-[Gly(cPent)][d(aIle)][Lys(Et2)]S-{NH(propargyl)}) ?
0.66

Form field: reported ΔTm of CCCCCn1c(C)c(C(=O)c2cccc3ccccc23)c2ccccc21
0.2

If you can, please state the reported ΔTm value of COc1ccc(N(C(=O)Oc2c(C)cccc2C)c2ccnc(Nc3ccc(N4CCN(C)CC4)cc3)n2)c(OC)c1 .
9.28

What value of measured ΔTm is listed for O=C(NNc1ccccn1)c1ccccn1 ?
0.12

So what does the record say about ΔTm for COc1cc(C)[nH]c(=O)c1CNC(=O)c1c(C)n([C@H](C)C2CCOCC2)c2ccccc12 ?
0.28

Entry N#Cc1ccc(N2N=C3c4ccc(C(=O)O)cc4CC[C@@H]3[C@@H]2C2CCCC2)cc1Cl has what ΔTm?
-2.47
